Measured A2A radioligand binding competition assay % residual binding @ 3000 nM of individual entries
- testedSystem: adenosine A2A receptor (Homo sapiens (Human))
- methodDescription: Radioligand binding competition assay, adenosine A2A receptor
- settings: 3000 nM compound
- Description: Binding of selected compounds to the adenosine A1, A2A, A2B, and A3 receptors was tested using a binding competition assay. The general protocol for the radioligand binding competition assay was as follows. […] Nonspecific binding was determined by co-incubation with 200-fold excess of cold competitor. […] The filter plates were sealed, incubated 15 min on an orbital shaker and scintillation counted with a TopCount for 30 sec/filter. […]

> print(dat)
                            structuresmiles  result
1  O=c1ccc2cc(-c3ccc4ncccc4c3)c(-c3ccccc3)nc2[nH]1     19%

Give the value of A2A radioligand binding competition assay % residual binding @ 3000 nM reported for the following: O=c1cc[nH]c2nc(-c3ccncc3)c(-c3ccc4ncccc4c3)cc12 38/ND/ND/ND %

# return recorded A2A radioligand binding competition assay % residual binding @ 3000 nM for entry O=c1cc[nH]c2nc(-c3ccccc3)c(-c3ccc4nccnc4c3)cc12 45/ND/ND/ND %

Return A2A radioligand binding competition assay % residual binding @ 3000 nM for the following compound: Cc1cc(-c2cc3c(=O)cc[nH]c3nc2-c2ccccc2)cc2cccnc12 22/ND/ND/ND %

Fill in reported A2A radioligand binding competition assay % residual binding @ 3000 nM for this entry: O=c1cc[nH]c2nc(-c3ccccc3)c(-c3cc(Cl)c4[nH]cnc4c3)cc12 14/ND/ND/ND %

Supply A2A radioligand binding competition assay % residual binding @ 3000 nM value. Item: O=c1ccc2cc(-c3ccc4nccnc4c3)c(-c3ccccc3)nc2[nH]1 60/ND/ND/ND %

Hello, please tell me recorded A2A radioligand binding competition assay % residual binding @ 3000 nM for this one: O=c1ccc2cc(-c3cc(Cl)c4[nH]cnc4c3)c(-c3ccccc3)nc2[nH]1 25/ND/ND/ND %

Quote A2A radioligand binding competition assay % residual binding @ 3000 nM reported for Cn1ccc(=O)c2cc(-c3ccc4ncccc4c3)c(-c3ccccc3)nc21 please. 106/ND/ND/ND %

Identify measured A2A radioligand binding competition assay % residual binding @ 3000 nM corresponding to O=c1ccc2cc(-c3cc(Cl)c4ncccc4c3)c(-c3ccccc3)nc2[nH]1 14/ND/ND/ND %

Kindly indicate its recorded A2A radioligand binding competition assay % residual binding @ 3000 nM. Item: O=c1cc[nH]c2nc(-c3ccccc3)c(-c3ccc4ncsc4c3)cc12 16/ND/ND/ND %

* * *

- testedSystem: adenosine A2A receptor (Homo sapiens (Human))
- methodDescription: Radioligand binding competition assay, adenosine A2A receptor
- settings: 300 nM compound
quantity: A2A radioligand binding competition assay % residual binding @ 300 nM (%)

Solved cases below.
> print(dat)
                            structuresmiles  numericreadout
1  O=c1cc[nH]c2nc(-c3ccccc3)c(-c3ccc4ncccc4c3)cc12              38
2  O=c1ccc2cc(-c3ccc4ncccc4c3)c(-c3ccccc3)nc2[nH]1              79
3  O=c1ccc2cc(-c3ccc(O)c(Cl)c3)c(-c3ccccc3)nc2[nH]1              54

I. O=c1cc[nH]c2nc(-c3ccccc3)c(-c3ccc(O)c(Cl)c3)cc12
II. O=c1cc[nH]c2nc(-c3ccccc3)c(-c3ccc4[nH]cnc4c3)cc12
Returns: the argument ( I or II ) having the larger A2A radioligand binding competition assay % residual binding @ 300 nM. Reply with the label of the item you choose. I
(I: 60%, II: 33%)

* * *

In this section we review reported A2A radioligand binding competition assay % residual binding @ 3000 nM values for a set of compounds.
- testedSystem: UniProt:P29274
- methodDescription: Radioligand binding competition assay, adenosine A2A receptor
- settings: 3000 nM compound

Solved cases (3 shown):
> print(dat)
                            structuresmiles         result
1  O=c1cc[nH]c2nc(-c3ccccc3)c(-c3cnc4ncccc4c3)cc12  51/ND/ND/ND %
2  O=c1cc[nH]c2nc(-c3ccccc3)c(-c3ccc4ccccc4c3)cc12  76/ND/ND/ND %
3  O=c1cc[nH]c2nc(-c3ccccc3)c(-c3ccc4ncccc4c3)cc12            22%

Enter A2A radioligand binding competition assay % residual binding @ 3000 nM (test system UniProt:P29274) for Cn1cnc2cc(-c3cc4c(=O)cc[nH]c4nc3-c3ccccc3)ccc21 69/ND/ND/ND %

With UniProt:P29274 as the test system, provide measured A2A radioligand binding competition assay % residual binding @ 3000 nM for this compound: O=c1cc[nH]c2nc(-c3ccccc3)c(-c3ccc4[nH]cnc4c3)cc12 18%

Quote UniProt:P29274 A2A radioligand binding competition assay % residual binding @ 3000 nM for entry O=c1cc[nH]c2nc(-c3ccco3)c(-c3ccc4ncccc4c3)cc12 . 5/ND/ND/ND %

Give A2A radioligand binding competition assay % residual binding @ 3000 nM for this entry on UniProt:P29274: Cc1cc(-c2cc3c(=O)cc[nH]c3nc2-c2ccccc2)cc(C)n1 50/ND/ND/ND %

Give reported A2A radioligand binding competition assay % residual binding @ 3000 nM for O=c1cc[nH]c2nc(-c3ccccc3)c(-c3ccc4cnccc4c3)cc12 (UniProt:P29274) 70/ND/ND/ND %

* * *

# A2A radioligand binding competition assay % residual binding @ 3000 nM annotations
- testedSystem: adenosine A2A receptor (Homo sapiens (Human), UniProt P29274)
- Sequence (P29274 whole entry): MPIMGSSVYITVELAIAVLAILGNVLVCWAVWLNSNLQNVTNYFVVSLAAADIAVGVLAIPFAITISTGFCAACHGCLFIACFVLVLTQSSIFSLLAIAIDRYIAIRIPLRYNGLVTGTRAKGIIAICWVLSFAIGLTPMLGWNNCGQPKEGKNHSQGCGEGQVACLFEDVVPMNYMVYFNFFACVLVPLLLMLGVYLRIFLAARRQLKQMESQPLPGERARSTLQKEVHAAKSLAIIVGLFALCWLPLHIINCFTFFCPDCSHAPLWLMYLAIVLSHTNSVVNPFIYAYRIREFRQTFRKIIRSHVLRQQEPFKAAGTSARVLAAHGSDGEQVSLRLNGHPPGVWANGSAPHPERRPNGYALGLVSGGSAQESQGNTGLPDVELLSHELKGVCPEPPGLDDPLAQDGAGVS
- methodDescription: Radioligand binding competition assay, adenosine A2A receptor
- settings: 3000 nM compound

Solved cases (3 shown):
> print(dat)
                                   molecule         result
1  Cc1ccc(-c2nc3[nH]ccc(=O)c3cc2-c2ccc3ncccc3c2)o1 [Compound No. 1.25]   0/ND/ND/ND %
2  O=c1cc[nH]c2nc(-c3ccccc3)c(-c3cc(Cl)c4ncccc4c3)cc12 [Compound No. 1.13]  29/ND/ND/ND %
3  O=c1cc[nH]c2nc(-c3ccccc3)c(-c3ccc4ocnc4c3)cc12 [Compound No. 1.21]  54/ND/ND/ND %

Please report A2A radioligand binding competition assay % residual binding @ 3000 nM with adenosine A2A receptor (Homo sapiens (Human), UniProt P29274) for item O=c1ccc2cc(-c3ccc4[nH]cnc4c3)c(-c3ccccc3)nc2[nH]1 [Compound No. 1.6] . 57/ND/ND/ND %

* * *

- testedSystem: adenosine A2A receptor (Homo sapiens (Human), UniProt P29274)
- methodDescription: cAMP assay in HEK-293 cells expressing human recombinant adenosine A2A receptor
- Assay type: cell-based
- settings: second cAMP table
quantity: IC50 (µM)

> print(dat)
                                   molecule  numericreadout
1  Cc1ccn(-c2nc3[nH]ccc(=O)c3cc2-c2ccc3ncccc3c2)n1 [Compound No. 1.92]           0.357

a. O=c1cc[nH]c2nc(-n3cccn3)c(-c3ccc4ncccc4c3)cc12 [Compound No. 1.100]
b. O=c1cc[nH]c2nc(-c3ccccc3)c(-c3ccc4[nH]ncc4c3)cc12 [Compound No. 1.102]
Please indicate which entry, a or b , has the lower recorded IC50 value. Let me know the label of the one you choose. b
(b: 0.292 µM, a: 3.22 µM)

P. Cc1ccc(-c2nc3[nH]ccc(=O)c3cc2-c2ccc3ncsc3c2)o1 [Compound No. 1.98]
Q. O=c1cc[nH]c2nc(-c3ccccc3)c(-c3ccc4ncncc4c3)cc12 [Compound No. 1.101]
Problem: Given the entries P and Q , determine which has the lower reported IC50. Indicate which entry you chose by stating its label. P
(P: 0.0172 µM, Q: 0.182 µM)

* * *

- testedSystem: UniProt P29274
- methodDescription: cAMP assay in HEK-293 cells expressing human recombinant adenosine A2A receptor
- Assay type: cell-based
- settings: HEK293; 100 nM compound; read-out: A2a cAMP % inh @ 100 nM
quantity: inhibition at 0.1 µM (%)

Some compounds with recorded inhibition at 0.1 µM:
> print(dat)
                            structuresmiles    testedsystem  resultunit  numericreadout
1  Cn1ccc(=O)c2cc(-c3ccc4ncccc4c3)c(-c3ccccc3)nc21  UniProt P29274           %               0
2  O=c1ccc2cc(-c3ccc4[nH]cnc4c3)c(-c3ccccc3)nc2[nH]1  UniProt P29274           %              43
3  O=c1cc[nH]c2nc(-c3ccco3)c(-c3ccc4ncccc4c3)cc12  UniProt P29274           %              94
4  O=c1cc[nH]c2nc(-c3ccccc3)c(-c3ccc4ccccc4c3)cc12  UniProt P29274           %              23

A. O=c1cc[nH]c2nc(-c3ccccc3)c(-c3cnc4ncccc4c3)cc12
B. O=c1cc[nH]c2nc(-c3ccccc3)c(-c3cc(Cl)c4[nH]cnc4c3)cc12
# query: argmin of inhibition at 0.1 µM over A and B Your choice should be expressed through its label. A

Measured values drawn from patent US10793561B2 for this set.
